# System: Yap1 mRNA
# Assay procedure: Dose-dependent inhibition of human Yap1 in A-431 cells (Example 7, 10,000 cells per well, RTS36584)
# Type: cell-based
# Condition parameters: Table 60, 4000.00 nM, free uptake, A-431 cells 10,000 cells per well, 48 hours
Strand notation (5' to 3'): a small letter for the sugar, then the base; units joined by * are phosphorothioate-linked, units joined directly phosphodiester-linked; [ ] holds rarer units or linkages, { } end groups; capitals alone tell only the bases. k = constrained ethyl (cEt); [5mC] = 5-methylcytosine; d = 2'-deoxy (DNA)
Everything with Yap1 mRNA, % UTC lower than 20 % UTC is F; everything else, including exactly 20 % UTC, is T.

Query string: Decide: is the reported value of Yap1 mRNA, % UTC for 958554 (kA*kA*k[5mC]*d[5mC]*dA*dT*dT*dA*dT*dT*dA*d[5mC]*dT*k[5mC]*k[5mC]*kT; antisense) [compound 958554] equal to or greater than 20 % UTC?
Result string: F

Query string: Decide: is the reported value of Yap1 mRNA, % UTC for 958753 (kT*kG*kT*dA*dT*dA*dT*dG*d[5mC]*d[5mC]*dG*dT*dT*k[5mC]*k[5mC]*k[5mC]; antisense) [compound 958753] equal to or greater than 20 % UTC?
Result string: F

Query string: Decide: is the reported value of Yap1 mRNA, % UTC for 958793 (k[5mC]*k[5mC]*kG*d[5mC]*dA*dT*dT*dG*d[5mC]*d[5mC]*dT*dA*dA*kG*kA*kG; antisense) [compound 958793] equal to or greater than 20 % UTC?
Result string: T

Query string: Decide: is the reported value of Yap1 mRNA, % UTC for 958508 (kG*kA*kG*dA*dG*d[5mC]*dA*dG*dA*dT*dA*dA*dT*k[5mC]*kG*kA; antisense) [compound 958508] equal to or greater than 20 % UTC?
Result string: F

Query string: Decide: is the reported value of Yap1 mRNA, % UTC for 958473 (kG*kT*k[5mC]*dT*d[5mC]*d[5mC]*dT*dT*dA*dG*dA*dT*d[5mC]*k[5mC]*kT*kT; antisense) [compound 958473] equal to or greater than 20 % UTC?
Result string: F

Query string: Decide: is the reported value of Yap1 mRNA, % UTC for 958598 (k[5mC]*k[5mC]*k[5mC]*dA*dA*dT*dG*d[5mC]*dT*dA*d[5mC]*d[5mC]*d[5mC]*kA*kA*kT; antisense) [compound 958598] equal to or greater than 20 % UTC?
Result string: F
